The measured values listed here are drawn from paper PMC10537553.

- test: MTT cell viability assay (cytotoxicity)
- Format: cell-based, human
- conditionInfo: human, SH-SY5Y neuroblastoma cells, 1–500 μM, 24 h, MTT
propertyName: IC50 at 24 h (µM)
Give just the number in µM; leave the unit off.

Some compounds with recorded IC50 at 24 h:
compound="CCOC(=O)c1cc(-c2ccc(Br)cc2)n(CCC(=O)N/N=C/c2ccc(N(C)C)cc2)c1C [8a]" propertyname="IC50 at 24 h" observedvalue=56.3
compound="CCOC(=O)c1cc(-c2ccc(Br)cc2)n(CC(=O)N/N=C/c2ccc(N(C)C)cc2)c1C [7a]" propertyname="IC50 at 24 h" observedvalue=55.8
compound="CCOC(=O)c1cc(-c2ccc(Br)cc2)n(CC(=O)N/N=C/c2ccc(OC)cc2OC)c1C [7e]" propertyname="IC50 at 24 h" observedvalue=63.1
compound="CCOC(=O)c1cc(-c2ccc(Br)cc2)n(CCC(=O)N/N=C/c2cc(OC)c(O)c(OC)c2)c1C [8d]" propertyname="IC50 at 24 h" observedvalue=57.3
compound="CCOC(=O)c1cc(-c2ccc(Br)cc2)n(CC(=O)N/N=C/c2cc(OC)c(O)c(OC)c2)c1C [7d]" propertyname="IC50 at 24 h" observedvalue=99.6

Request: Item under review: CCOC(=O)c1cc(-c2ccc(Br)cc2)n(CCC(=O)N/N=C/c2ccc(Cl)cc2)c1C [8b] . Reported IC50 at 24 h?
Response: 57.4

Request: Item under review: CCOC(=O)c1cc(-c2ccc(Br)cc2)n(CC(=O)N/N=C/c2ccc(Cl)cc2)c1C [7b] . Reported IC50 at 24 h?
Response: 67.6

* * *

Recorded IC50 at 24 h by entry
- test: MTT cell viability assay (cytotoxicity)
- Format: cell-based, human
- conditionInfo: human, SH-SY5Y neuroblastoma cells, 1–500 μM, 24 h, MTT

compound="CCOC(=O)c1cc(-c2ccc(Br)cc2)n(CCC(=O)N/N=C/c2ccc(OC)cc2OC)c1C [8e]" propertyname="IC50 at 24 h" observedvalue="91.1 µM"

Request: Item under review: CCOC(=O)c1cc(-c2ccc(Br)cc2)n(CCC(=O)N/N=C/c2ccc([N+](=O)[O-])cc2)c1C [8c] . Reported IC50 at 24 h?
Response: 58.2 µM

Request: Item under review: COc1ccc2[nH]cc(CCNC(C)=O)c2c1 [Melatonin, reference compound] . Reported IC50 at 24 h?
Response: > 500 µM

* * *

Recorded melting point by entry

Some compounds with recorded melting point:
smilesrepresentation=CCOC(=O)c1cc(-c2ccc(Br)cc2)n(CC(=O)N/N=C/c2cc(OC)c(O)c(OC)c2)c1C observedvalue="191.9 to 194.4 °C"
smilesrepresentation=CCOC(=O)c1cc(-c2ccc(Br)cc2)n(CCC(=O)N/N=C/c2cc(OC)c(O)c(OC)c2)c1C observedvalue="196.6 to 197.6 °C"
smilesrepresentation=CCOC(=O)c1cc(-c2ccc(Br)cc2)n(CC(=O)N/N=C/c2ccc([N+](=O)[O-])cc2)c1C observedvalue="245.9 to 247.2 °C"

Next, consider the following compound.
Request: Item under review: CCOC(=O)c1cc(-c2ccc(Br)cc2)n(CCC(=O)N/N=C/c2ccc([N+](=O)[O-])cc2)c1C . Reported melting point?
Response: 214.4 to 217.1 °C

* * *

- test: ABTS radical scavenging assay
- Assay type: biochemical
- conditionInfo: 1 mg/mL in methanol, 10 min, 734 nm
propertyName: ABTS scavenging activity (%)
Give just the number in %; leave the unit off.

Request: Item under review: CCOC(=O)c1cc(-c2ccc(Br)cc2)n(CCC(=O)N/N=C/c2cc(OC)c(O)c(OC)c2)c1C . Reported ABTS scavenging activity?
Response: 89

Request: Item under review: CCOC(=O)c1cc(-c2ccc(Br)cc2)n(CCC(=O)N/N=C/c2ccc(N(C)C)cc2)c1C . Reported ABTS scavenging activity?
Response: 48

Request: Item under review: CCOC(=O)c1cc(-c2ccc(Br)cc2)n(CC(=O)N/N=C/c2cc(OC)c(O)c(OC)c2)c1C . Reported ABTS scavenging activity?
Response: 83

Request: Item under review: CCOC(=O)c1cc(-c2ccc(Br)cc2)n(CC(=O)N/N=C/c2ccc(N(C)C)cc2)c1C . Reported ABTS scavenging activity?
Response: 22
